System: HOP-62 NSCLC
Experiment: NCI-60 one-dose screen, 48 h
Conditions: 10 µM unless noted
Description: Growth inhibition of the HOP-62 human Non-Small Cell Lung tumor cell line is measured as a screen for anti-cancer activity. Cells are grown in 96 well plates and exposed to the test compound for 48 hours. Compounds are tested at a single concentration, which is 10^-5 M for most compounds. The reported endpoint is percent growth (GI% or GIPRCNT), where numbers from 0 - 100% represent growth inhibition, and numbers from -100% - 0 represent cell death. […]
The panel holds about 83,000 compounds, 20% with a hit somewhere; the sample as a whole holds those more often. Calls of active or inactive are those of the source. The calls were made as follows: active = growth percent below 10; inactive = the rest.
Hi there, use one of these labels in your reply, thanks! yes (active), no (inactive)

Example entries and their recorded answers appear below.
1. CC(=O)Oc1cc2ccccc2cc1C(C)C | no
2. CCCCCCNC(=O)Oc1ccc(/C(=C(/C)Cc2ccc(OC)cc2)c2ccc(OCCN3CCCCC3)cc2)cc1 | no
3. O=C1C(Cl)=C(SC2=NCCN2)C(=O)c2ccccc21 | no
4. COc1ccc(C2CC(=O)c3c(O)cc(OC4OC(COC5OC(C)C(O)C(O)C5O)C(O)C(O)C4O)cc3O2)cc1O (stereo not drawn) | no
5. CCCCCCCCCCC1OC(C)CC(C)O1 (stereo not drawn) | no
6. CN1NC(c2ccccc2)NN(C)C1=O | no

Prompt: GET /call?item= "CCOC(=O)c1sc(NS(=O)(=O)c2ccccc2)nc1C" returns the recorded outcome of this test.
Completion: yes

Prompt: GET /call?item= "Cc1cc2cn3c4ccc(O)cc4[nH]c(=O)c3c2cc1C" returns the recorded outcome of this test.
Completion: no

Prompt: GET /call?item= "CCCCCCCCCCCCCCCCNC(=S)N/N=C/c1ccc(OC)cc1" returns the recorded outcome of this test.
Completion: no

Prompt: GET /call?item= "CCOC(=O)/C(C#N)=C(/CC)OCC" returns the recorded outcome of this test.
Completion: no

Prompt: GET /call?item= "CCCNC(=O)Oc1ccc(/C(=C(/C)Cc2ccc(OC)cc2)c2ccc(OCCN3CCCCC3)cc2)cc1" returns the recorded outcome of this test.
Completion: no

Prompt: GET /call?item= "CCCCCCCCCC[N+](C)(C)N" returns the recorded outcome of this test.
Completion: no

Prompt: GET /call?item= "O=C1C=C(OCC=C(C(F)(F)F)C(F)(F)F)c2ccccc2C1=O" returns the recorded outcome of this test.
Completion: no

Prompt: GET /call?item= "COC(=O)[C@H](Cc1cn(C)cn1)NC(=O)[C@@H](NC(=O)Nc1cc(C(F)(F)F)cc(C(F)(F)F)c1)C(C)(C)C" returns the recorded outcome of this test.
Completion: yes

Prompt: GET /call?item= "C=CCNC(=S)NNc1ccc([N+](=O)[O-])cn1" returns the recorded outcome of this test.
Completion: no

Prompt: GET /call?item= "COc1cc(-c2nc(/C=C3/C(=O)Nc4ccccc43)c3ccccn23)cc(OC)c1OC" returns the recorded outcome of this test.
Completion: no

Prompt: GET /call?item= "O=C(/C=C\c1ccc(NCc2ccc(C(=O)O)cc2)cc1)CCl" returns the recorded outcome of this test.
Completion: no

Prompt: GET /call?item= "COC(=O)CC(=O)C(=O)OC" returns the recorded outcome of this test.
Completion: no

Prompt: GET /call?item= "CCCCCCCCCCCCCCCCNC(=O)Nc1ccc(C)c(NC(=O)NCCCCCCCCCCCCCCCC)c1" returns the recorded outcome of this test.
Completion: no

Prompt: GET /call?item= "Oc1ccc([S+](c2ccc(O)cc2)c2ccc(O)cc2)cc1" returns the recorded outcome of this test.
Completion: no

Prompt: GET /call?item= "CN1CCN(Cc2ccc(NC(=O)c3ccc(C#Cc4c(N)ncc5ccc(F)cc45)cc3)cc2C(F)(F)F)CC1" returns the recorded outcome of this test.
Completion: yes

Prompt: GET /call?item= "CC(=O)N(N=O)c1ccc([N+](=O)[O-])cc1Cl" returns the recorded outcome of this test.
Completion: no

Prompt: GET /call?item= CC(=O)C(CO)C(=O)Nc1ccccc1 (stereo not drawn) returns the recorded outcome of this test.
Completion: no

* * *

Tested on: NCI-H322M lung
Assay: NCI-60 one-dose screen, 48 h
Conditions: 10 µM unless noted
About 83,000 compounds went through this panel and 20% of them were active in at least one assay; those are over-represented in the sample as a whole. Calls of active or inactive are those of the source. How the source made its calls: active means growth percent below 10; inactive means the rest.
Hi there, use one of these labels in your reply, thanks! active, inactive

Example entries and their recorded answers appear below.
1. CCCCCCC(=O)C(C)C | inactive
2. NC(N)=Nc1ccc(/C=C2\C=Cc3ccccc32)cc1 | inactive
3. Cc1ccc(S(=O)(=O)Nc2cccc(Cn3c(=O)[nH]c4ccc(Oc5ncccn5)cc4c3=O)c2)cc1 | inactive
4. O=C(NCCO)C(F)(F)F | inactive
5. CCCCN(CCC)CCCCCCCCCCN1CCCc2ccccc21 | inactive

Prompt: GET /call?item= "COC1=C(OC)C(=O)c2ccccc2C1=O" returns the recorded outcome of this test.
Completion: inactive

Prompt: GET /call?item= "CCCCCCCCCCCCc1ccc([N+](CC)(CC)CC)cc1" returns the recorded outcome of this test.
Completion: inactive

Prompt: GET /call?item= CC1Cc2cc(F)ccc2-n2cccc21 (stereo unspecified) returns the recorded outcome of this test.
Completion: inactive

Prompt: GET /call?item= "[N-]=[N+]=Nc1ncc(-c2ccc(C(F)(F)F)cc2)c(NC2CCCCCC2)n1" returns the recorded outcome of this test.
Completion: inactive

Prompt: GET /call?item= "CCN(CC)CCNc1ncnc2c1cnn2-c1ccc(Cl)cc1" returns the recorded outcome of this test.
Completion: inactive

Prompt: GET /call?item= "Oc1ccccc1/C=N/N=C/c1c(O)ccc2ccccc12" returns the recorded outcome of this test.
Completion: inactive

Prompt: GET /call?item= CC(=O)OC1CC2C3CCC4C[C@@H](NC(=O)C=C(C)C)CC[C@]4(C)C3CC[C@]2(C)[C@H]1C(C)N(C)C (stereo partly specified) returns the recorded outcome of this test.
Completion: active

Prompt: GET /call?item= "COc1cc(-c2nn(-c3ccc(NC(=O)c4ccc(Cl)c(C(F)(F)F)c4)cc3)cc2-c2ccncc2)ccc1Cl" returns the recorded outcome of this test.
Completion: inactive

Prompt: GET /call?item= "Cc1[nH]n(C(=S)Nc2nc3cc(Cl)c(F)cc3s2)c(=O)c1N=Nc1ccc(F)c(Cl)c1" returns the recorded outcome of this test.
Completion: inactive

Prompt: GET /call?item= "C[C@]12CC[C@H]3[C@@H](CC[C@H]4C[C@@H](O)CC[C@@]43C)[C@@H]1CC(=O)C2" returns the recorded outcome of this test.
Completion: inactive

Prompt: GET /call?item= "N=C(N)c1ccc(-c2ccc(-c3cc(Cl)cc(Cl)c3)s2)cc1" returns the recorded outcome of this test.
Completion: active

Prompt: GET /call?item= "Cc1cc2cn3c4ccc(O)cc4[nH]c(=O)c3c2cc1C" returns the recorded outcome of this test.
Completion: active

Prompt: GET /call?item= "C[C@@H](c1ccc2c(c1)[nH]c1ccc(Cl)cc12)c1nc2ccc(Cl)cc2[nH]1" returns the recorded outcome of this test.
Completion: inactive

Prompt: GET /call?item= "Nc1nc2cc(O)ccc2n2cc3c(F)cccc3c12" returns the recorded outcome of this test.
Completion: inactive

* * *

Test system: U251 CNS
Assay: NCI-60 one-dose screen, 48 h
Settings: 10 µM unless noted
The panel holds about 83,000 compounds, 20% with a hit somewhere; the sample as a whole holds those more often. Calls of active or inactive are those of the source. The calls were made as follows: active = growth percent below 10; inactive = the rest.
Hi there, use one of these labels in your reply, thanks! active, inactive

Example entries and their recorded answers appear below.
1. COc1ccc(/C=C(/C(=O)N2CCN(c3ccc(C)cc3)CC2)c2cc(OC)c(OC)c(OC)c2)cc1N | inactive
2. CC(O)CCC(C)[N+](=O)[O-] (stereo unspecified) | inactive
3. Cc1ccc(C(=O)Nc2ccc(CN3CCN(C)CC3)c(C(F)(F)F)c2)cc1C#Cc1cncc2ncccc12 | active
4. CC(C)OC(=O)c1ccc2n1CCCc1cnc(Nc3ccccc3)nc1-2 | inactive
5. Cc1nc(N)sc1C(=O)NCCO | inactive

Prompt: GET /call?item= "Cc1ccc(NC(=O)CCl)cc1Cl" returns the recorded outcome of this test.
Completion: inactive

Prompt: GET /call?item= "COC(=O)[C@H](Cc1cn(C)cn1)NC(=O)[C@H](CC(=O)OCc1ccccc1)NC(=O)Nc1cc(C(F)(F)F)cc(C(F)(F)F)c1" returns the recorded outcome of this test.
Completion: active

Prompt: GET /call?item= "CCn1cnc(C[C@H](NC(=O)[C@@H](NC(=O)Nc2cc(C(F)(F)F)cc(C(F)(F)F)c2)C(C)C)C(=O)OC)c1" returns the recorded outcome of this test.
Completion: active

Prompt: GET /call?item= CC(O)C(N)=O (stereo unspecified) returns the recorded outcome of this test.
Completion: inactive

Prompt: GET /call?item= "Cc1c(C(N)=O)sc2c1c(=O)n(Cc1ccccc1)c1nnc(S(C)(=O)=O)n21" returns the recorded outcome of this test.
Completion: inactive

Prompt: GET /call?item= "O=C(Nc1ccc(Cl)cn1)C1(c2ccccc2)CCCCC1" returns the recorded outcome of this test.
Completion: inactive

Prompt: GET /call?item= "Oc1ccc2ccccc2c1/C=N\Nc1ccccn1" returns the recorded outcome of this test.
Completion: inactive

Prompt: GET /call?item= "CC(=O)Nc1nc(C)c(C(=O)N/N=C/c2cccs2)s1" returns the recorded outcome of this test.
Completion: inactive

Prompt: GET /call?item= COc1cccc(CNC(=O)c2cccc(C3CC(=O)c4c(cc(OC)c(OC)c4OC)O3)c2)c1 (stereo unspecified) returns the recorded outcome of this test.
Completion: inactive

Prompt: GET /call?item= "CCCCCCCCC/C(=N\NC(=O)c1ccncc1)c1ccc(O)c(O)c1O" returns the recorded outcome of this test.
Completion: inactive

Prompt: GET /call?item= "COc1ccc(Cn2cc3c(c2-c2ccc(O)cc2)CCc2cnoc2-3)cc1" returns the recorded outcome of this test.
Completion: inactive

Prompt: GET /call?item= "C[C@H]1C[C@@H](n2cnc3c(N)nccc32)[C@H](O)[C@@H]1O" returns the recorded outcome of this test.
Completion: inactive

Prompt: GET /call?item= "CC1C(=O)CCCC1=O" returns the recorded outcome of this test.
Completion: inactive

Prompt: GET /call?item= "Nc1ccc(N=Nc2ccccc2)c2cc(S(=O)(=O)O)ccc12" returns the recorded outcome of this test.
Completion: inactive

Prompt: GET /call?item= "COc1ccc2c(c1)cn1c3ccc(O)cc3[nH]c(=O)c21" returns the recorded outcome of this test.
Completion: inactive

Prompt: GET /call?item= "O=C(N/N=C/c1coc2ccccc2c1=O)c1cc2oc(-c3ccccc3)cc2[nH]1" returns the recorded outcome of this test.
Completion: inactive
